Condition label: buffer; pH 7.4; 200.0 µM
Outcome measure: solubility kinetic

Past entries and their recorded results:
Q: Dear colleague, I am looking for the recorded solubility kinetic of the following compound: COc1cc(NC(=O)C2C3CCC(O3)C2C(=O)O)cc(OC)c1 (centres undefined)
A: > 48.2 µg/mL

Q: Dear colleague, I am looking for the recorded solubility kinetic of the following compound: Cc1cccc(NC(=O)CN(CC2CCCO2)C(=O)c2cc(S(=O)(=O)N(C)C)ccc2F)c1C (centres undefined)
A: > 73.7 µg/mL

Q: Dear colleague, I am looking for the recorded solubility kinetic of the following compound: Cc1ccc(C(=O)COC(=O)[C@@H](NC(=O)c2ccco2)C(C)C)s1
A: > 52.4 µg/mL

Q: Dear colleague, I am looking for the recorded solubility kinetic of the following compound: Cc1nc(C(N)=O)c(N)n1CCc1ccccc1
A: 35.7 µg/mL

Q: Dear colleague, I am looking for the recorded solubility kinetic of the following compound: Cc1ccc(-c2csc(NC(=O)c3ccccc3Cl)c2C(=O)O)cc1
A: > 55.8 µg/mL

---
Q: Dear colleague, I am looking for the recorded solubility kinetic of the following compound: CC(C)c1cc(NCCOCCO)n2c(nc3ccccc32)c1C#N
A: 7.8 µg/mL

Q: Dear colleague, I am looking for the recorded solubility kinetic of the following compound: CCCn1c(=N)n(CC(O)COc2ccc(C)cc2)c2ccccc21.Cl (centres undefined)
A: > 56.4 µg/mL

Q: Dear colleague, I am looking for the recorded solubility kinetic of the following compound: COc1ccccc1C(=O)NNC(=O)C(=O)NC(C)C
A: > 41.9 µg/mL

Q: Dear colleague, I am looking for the recorded solubility kinetic of the following compound: COc1cc(C(=O)O/N=C(\N)c2ccccn2)cc(OC)c1OC
A: > 49.7 µg/mL

---

Condition label: buffer; pH 7.4; 200.0 µM
Outcome measure: solubility kinetic

Q: Dear colleague, I am looking for the recorded solubility kinetic of the following molecule: CC(C)(CO)NCC#Cc1ccccc1.Cl
A: > 36 µg/mL

Q: Dear colleague, I am looking for the recorded solubility kinetic of the following molecule: CCOc1cc2c(cc1OCC)C(c1ccc(F)cc1)NCC2 (stereo unspecified)
A: > 47.3 µg/mL

---
Q: Dear colleague, I am looking for the recorded solubility kinetic of the following molecule: CC(C)NCC(O)c1ccc(O)c(O)c1.Cl (stereo unspecified)
A: > 37.2 µg/mL

Q: Dear colleague, I am looking for the recorded solubility kinetic of the following molecule: O=C(c1ccccc1F)N1CCC2(CC1)OCCO2
A: > 39.8 µg/mL

Q: Dear colleague, I am looking for the recorded solubility kinetic of the following molecule: COC(=O)/C(=N\OCc1ccc(C#N)cc1)c1c(C)nn(C)c1C
A: > 49 µg/mL

Q: Dear colleague, I am looking for the recorded solubility kinetic of the following molecule: CC1CCc2sc3ncnc(N4CCN(C)CC4)c3c2C1 (stereo unspecified)
A: > 45.4 µg/mL

---

Examples of compounds with documented solubility kinetic follow.
Condition label: buffer; pH 7.4; 200.0 µM

Past entries and their recorded results:
Q: Dear colleague, I am looking for the recorded solubility kinetic of the following compound: COc1ccc(C(=O)CCC(=O)Nc2ccc(Cl)cc2)cc1
A: < 0.7 µg/mL

Q: Dear colleague, I am looking for the recorded solubility kinetic of the following compound: Nc1nc(NCCOCCO)nc(NCC2CCCO2)c1[N+](=O)[O-] (stereo not drawn)
A: > 51.4 µg/mL

Q: Dear colleague, I am looking for the recorded solubility kinetic of the following compound: COCCCNC(=O)c1ccc(-c2csc(C)n2)cc1
A: > 43.6 µg/mL

---
Q: Dear colleague, I am looking for the recorded solubility kinetic of the following compound: COc1ccccc1CNC(=O)CN1C(=O)NC2(CCCCCCC2)C1=O
A: > 56 µg/mL

Q: Dear colleague, I am looking for the recorded solubility kinetic of the following compound: CC(=O)Nc1cccc(NC(=O)CSc2nnc3ccccn23)c1
A: > 51.2 µg/mL

---

Examples of compounds with documented solubility kinetic follow.
Condition label: buffer; pH 7.4; 200.0 µM

Q: Dear colleague, I am looking for the recorded solubility kinetic of the following compound: CS(=O)(=O)c1ccc(C(=O)Nc2ccccc2Cl)cc1
A: > 46.5 µg/mL

Q: Dear colleague, I am looking for the recorded solubility kinetic of the following compound: COc1ccc2[nH]c3c(=O)n(CCCN4CCOCC4)cnc3c2c1
A: > 51.4 µg/mL

Q: Dear colleague, I am looking for the recorded solubility kinetic of the following compound: O=C(c1ncc[nH]1)c1ccccc1Cl
A: > 31 µg/mL

Q: Dear colleague, I am looking for the recorded solubility kinetic of the following compound: C#CCSc1nc(=O)c2cccnc2n1-c1ccc(C)cc1
A: > 46.1 µg/mL

Q: Dear colleague, I am looking for the recorded solubility kinetic of the following compound: Cl.Nc1cnn(Cc2ccc(F)cc2)c1
A: > 34.2 µg/mL

Q: Dear colleague, I am looking for the recorded solubility kinetic of the following compound: COC(=O)CC1C(=O)NCCN1C(=S)Nc1ccc(F)cc1 (stereo unspecified)
A: > 48.8 µg/mL

Q: Dear colleague, I am looking for the recorded solubility kinetic of the following compound: CCN(CC(=O)Nc1c(F)cccc1F)C(=O)C1CC1C (stereo unspecified)
A: > 44.4 µg/mL

Q: Dear colleague, I am looking for the recorded solubility kinetic of the following compound: O=C(O)c1cccc(Nc2nc3ccccc3nc2NS(=O)(=O)c2ccccc2)c1
A: > 63.1 µg/mL

Q: Dear colleague, I am looking for the recorded solubility kinetic of the following compound: Cc1cc(C)c(NC(=O)C2=COCCO2)c(C)c1
A: > 37.1 µg/mL

Q: Dear colleague, I am looking for the recorded solubility kinetic of the following compound: CCN1C(=O)C(O)(CC(=O)c2c(C)coc2C)c2ccccc21 (stereo unspecified)
A: > 47 µg/mL

Q: Dear colleague, I am looking for the recorded solubility kinetic of the following compound: Nc1nc2sc3c(c2cc1C(=O)NCC(=O)O)CCCC3
A: > 45.8 µg/mL

Q: Dear colleague, I am looking for the recorded solubility kinetic of the following compound: O=C(O)CNC(=O)/C(=C\c1ccco1)NC(=O)c1ccco1
A: > 45.6 µg/mL

Q: Dear colleague, I am looking for the recorded solubility kinetic of the following compound: NC(=O)c1nn(CC(=O)Nc2ccc3c(c2)OCO3)cc1[N+](=O)[O-]
A: > 50 µg/mL

Q: Dear colleague, I am looking for the recorded solubility kinetic of the following compound: Cn1c2c(c3cc([N+](=O)[O-])ccc31)CCCC2
A: < 0.2 µg/mL

Q: Dear colleague, I am looking for the recorded solubility kinetic of the following compound: Cl.O=[N+]([O-])c1cc(CN(CCO)CCO)ccc1O
A: > 43.9 µg/mL

Q: Dear colleague, I am looking for the recorded solubility kinetic of the following compound: CN(NC1OC(=O)c2ccccc21)c1ccc(Cl)cc1[N+](=O)[O-] (stereo unspecified)
A: > 50.1 µg/mL

---

Examples of compounds with documented solubility kinetic follow.
Condition label: buffer; pH 7.4; 200.0 µM

Q: Dear colleague, I am looking for the recorded solubility kinetic of the following compound: CNC(=O)CSc1nccn1Cc1ccc(Cl)cc1
A: > 44.4 µg/mL

---
Q: Dear colleague, I am looking for the recorded solubility kinetic of the following compound: O=C(Nc1sc2c(c1C(=O)O)CCCCC2)c1cccnc1
A: > 47.5 µg/mL

Q: Dear colleague, I am looking for the recorded solubility kinetic of the following compound: CCOC(=O)N1CCN(C(=O)COC(=O)c2ccc(N(C)C)cc2)CC1
A: > 54.5 µg/mL

Q: Dear colleague, I am looking for the recorded solubility kinetic of the following compound: CCOC(=O)c1cnc(SC)nc1N1CCCC1
A: > 40.1 µg/mL

Q: Dear colleague, I am looking for the recorded solubility kinetic of the following compound: CCOc1ccccc1NC(=O)COC(=O)C1CC1
A: > 39.5 µg/mL

---

Condition label: buffer; pH 7.4; 200.0 µM
Examples of compounds with documented solubility kinetic follow.

Past entries and their recorded results:
Q: Dear colleague, I am looking for the recorded solubility kinetic of the following compound: Cc1cnc(C(=O)OCC(=O)N(CC(C)C)C2CCS(=O)(=O)C2)cn1 (centres undefined)
A: > 55.4 µg/mL

Q: Dear colleague, I am looking for the recorded solubility kinetic of the following compound: N#Cc1ccc(OCC(=O)NNC(=S)NC(=O)C2CC2)cc1
A: > 47.8 µg/mL

Q: Dear colleague, I am looking for the recorded solubility kinetic of the following compound: COc1cccc(CC(=O)OCC(=O)NC2CCCC2)c1
A: > 43.7 µg/mL

Alright, here's another compound for you.
Q: Dear colleague, I am looking for the recorded solubility kinetic of the following compound: O=C(C1CCCCC1)N1CCC(O)(c2ccc(Cl)cc2)CC1
A: > 48.3 µg/mL

---

Condition label: buffer; pH 7.4; 200.0 µM
Outcome measure: solubility kinetic

Past entries and their recorded results:
Q: Dear colleague, I am looking for the recorded solubility kinetic of the following compound: COc1ccccc1OCC(O)COC(N)=O (stereo not drawn)
A: 29.9 µg/mL

Q: Dear colleague, I am looking for the recorded solubility kinetic of the following compound: Cn1cnc2c1c(=O)n(Cc1cccc(F)c1)c(=O)n2C
A: 30.8 µg/mL

Q: Dear colleague, I am looking for the recorded solubility kinetic of the following compound: COc1ccc(NC(C)c2ccccc2)cc1 (stereo not drawn)
A: 16.9 µg/mL

Q: Dear colleague, I am looking for the recorded solubility kinetic of the following compound: O=C(NCC(=O)N1CC=C(c2ccccc2)CC1)c1ccc(F)cc1
A: 9 µg/mL

Q: Dear colleague, I am looking for the recorded solubility kinetic of the following compound: Cc1ccccc1NC(=O)c1c(C)cc(=O)oc1C
A: > 38.6 µg/mL

---
Q: Dear colleague, I am looking for the recorded solubility kinetic of the following compound: O=C(Nc1cccnc1Cl)c1cc2ccccc2o1
A: 7.3 µg/mL

Q: Dear colleague, I am looking for the recorded solubility kinetic of the following compound: CN(CC(=O)Nc1ccc(F)cc1)C(=O)c1ccncc1
A: > 43.1 µg/mL

Q: Dear colleague, I am looking for the recorded solubility kinetic of the following compound: Nc1cc([N+](=O)[O-])cc2oc(-c3ccccc3)cc12
A: < 0.3 µg/mL

Q: Dear colleague, I am looking for the recorded solubility kinetic of the following compound: Cc1cc(C)nc(/N=C(\N)Nc2ccc(S(N)(=O)=O)cc2)n1
A: 44.6 µg/mL

Q: Dear colleague, I am looking for the recorded solubility kinetic of the following compound: Cc1c(C(=O)N2CCN(c3ncccn3)CC2)oc2ccc(F)cc12
A: 9.5 µg/mL

Q: Dear colleague, I am looking for the recorded solubility kinetic of the following compound: CCc1ccc(N(CC(=O)N2CCOCC2)S(C)(=O)=O)cc1
A: > 49 µg/mL

Sourced from PubChem BioAssay AID1996
